Task for the reader: assign each of the following compounds its reported Potency.
- system tested: DNA dC->dU-editing enzyme APOBEC-3G (Homo sapiens) (UniProt Q9HC16)
- Sequence (Q9HC16 whole entry, looked up): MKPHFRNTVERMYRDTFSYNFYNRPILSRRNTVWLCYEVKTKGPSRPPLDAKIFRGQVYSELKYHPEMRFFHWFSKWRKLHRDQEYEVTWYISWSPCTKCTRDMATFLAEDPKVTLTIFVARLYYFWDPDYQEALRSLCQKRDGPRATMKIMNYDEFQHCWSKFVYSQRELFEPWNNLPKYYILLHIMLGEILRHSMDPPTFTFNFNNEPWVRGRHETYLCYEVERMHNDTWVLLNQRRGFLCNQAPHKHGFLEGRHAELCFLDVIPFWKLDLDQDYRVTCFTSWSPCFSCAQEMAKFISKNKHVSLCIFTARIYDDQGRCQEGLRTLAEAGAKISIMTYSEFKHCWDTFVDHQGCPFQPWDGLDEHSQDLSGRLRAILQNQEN
- protocol summary: qHTS for inhibitors of Vif-A3G interactions: Cherry picks counterscreen;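 further: hits raise yellow fluorescence by blocking Vif-driven A3G-eYFP degradation; nearly all actives have a fitted effect of over 70% in size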; further: potency means the concentration at half of the fitted maximal effect
- assay setup: HeLa A3G-eYFP + Vif, eYFP fluorescence, 24 h
About 1,100 (52%) of roughly 2,100 compounds were called active. Inconclusive results (about 27%) are left out. So high a share suggests a set chosen from earlier hits. The list shows a part of the results.

Solved entries:
{"compound": "CC(=O)Nc1ccc(C2=CC(=O)C[C@H](c3ccc(Cl)cc3)C2)cc1", "Potency": "18.4 µM (active)"}
{"compound": "Cc1ccsc1/C=N\\NC(=O)c1n[nH]c2c1CCC2", "Potency": "7.04 µM (active)"}
{"compound": "C=CCN1C=CC(=CC=C(C#N)C#N)C=C1", "Potency": "12.5 µM (active)"}
{"compound": "COc1ccc(/C=N/NC(=O)c2cccnc2)cc1CSc1ccccn1", "Potency": "5.59 µM (active)"}
{"compound": "CC(=O)c1ccc(-c2ccc(C(=O)Nc3nc(-c4ccccn4)cs3)o2)cc1", "Potency": "12.5 µM (active)"}
{"compound": "Cc1cc(C)n(-c2nnc3n2N=C(c2c[nH]c4ccccc24)CS3)n1", "Potency": "6.27 µM (active)"}

Give Potency for all compounds that follow.
1. CN(C)c1ccc(/C=C2\SC(N3CCCCC3)=NC2=O)cc1
2. O=[N+]([O-])c1ccc(-c2ccc(/C=N/Nc3nc(NCc4ccccc4)nc(N4CCOCC4)n3)o2)cc1
3. CC(=O)Nc1sc(/C(C#N)=C\c2cccc(Cl)c2)nc1-c1ccc(C)cc1
4. COc1ccc(/C=N/NC(=O)c2cccnc2)cc1COc1ccc(NC(C)=O)cc1
5. CC1CC(C)CN(CC(=O)c2c[nH]c3ccccc23)C1 (stereo not drawn)

["20.6 µM (active)", "10.3 µM (active)", "4.61 µM (active)", "12.5 µM (active)", "18.4 µM (active)"]

Give Potency for all compounds that follow.
1. COc1ccc(CNCC(=O)Nc2ccccc2-n2cccc2)cc1
2. COc1ccccc1NS(=O)(=O)c1cc([N+](=O)[O-])ccc1N/N=C/c1c(C)[nH]c2ccccc12
3. CCCCN1C(=O)/C(=C2/Sc3ccccc3N2C)S/C1=N\c1ncn[nH]1

1. 9.94 µM (active)
2. 2.8 µM (active)
3. 20.6 µM (active)

Give Potency for all compounds that follow.
1. O=C1c2ccccc2-c2onc3c(N4CCN(C5CCCCC5)CC4)cc(NCCO)c1c23
2. CCOC(=O)Cc1csc(NC(=O)c2sc3nc4c(C)cc(C)cc4cc3c2N)n1
3. COc1ccc(/C=N/NC(=O)c2ccccc2Cl)cc1CSc1nc2ccccc2s1

2.59 µM (active)
20.6 µM (active)
3.14 µM (active)

====

Task for the reader: assign each of the following molecules its reported max response.
- system tested: DNA dC->dU-editing enzyme APOBEC-3G (Homo sapiens)
- protocol summary: qHTS for inhibitors of Vif-A3G interactions: Cherry picks counterscreen;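 further: hits raise yellow fluorescence by blocking Vif-driven A3G-eYFP degradation; nearly all actives have a fitted effect of over 70% in size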;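 on max response: max response given as percent of control signal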
- assay setup: HeLa A3G-eYFP + Vif, eYFP fluorescence, 24 h
Hit rate of the full screen: of about 2,100 compounds, about 1,100 (52%) were called active. Inconclusive results (about 27%) are left out. The set was probably picked from earlier hits. The list shows a part of the results.
Give bare numbers, in %.

Solved entries:
{"molecule": "COc1cc(C=C2C(=O)c3ccccc3C2=O)cc(OC)c1OC", "observed value": -6.19}
{"molecule": "Cc1ccc(-c2nc(C=Nc3ccc(O)cc3)c(O)o2)cc1", "observed value": -18.6}
{"molecule": "COc1cc(C(=O)OCC(=O)Nc2ccc(N3CCOCC3)cc2)ccc1OCC(C)C", "observed value": 8.76}

Give max response for all molecules that follow.
1. C/C(=N\NC(=S)NCc1ccccc1)c1cccs1
2. Cc1ccc(C2=NN(C(=O)c3cccs3)C(c3ccccc3O)C2)cc1 (stereo unspecified)
3. COc1ccc(/C=C/C=C2\NC(=S)NC2=O)cc1
4. O=C(/C=C/c1ccco1)N1CCc2ccccc21
5. CN1C(=O)N(C)c2ccc(C=O)c3cccc1c23

[-28.6, 20.9, -11.7, -19.9, 1.02]

====

- system tested: DNA dC->dU-editing enzyme APOBEC-3G (Homo sapiens) (UniProt Q9HC16)
- protocol summary: qHTS for inhibitors of Vif-A3G interactions: Cherry picks counterscreen;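 further: hits raise yellow fluorescence by blocking Vif-driven A3G-eYFP degradation; nearly all actives have a fitted effect of over 70% in size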;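 on max response: max response given as percent of control signal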
- assay setup: HeLa A3G-eYFP + Vif, eYFP fluorescence, 24 h
The whole screen tested about 2,100 compounds, of which about 1,100 (52%) were called active. Inconclusive results (about 27%) are left out. The set was probably picked from earlier hits. This is one part of the list.
measured property: max response (%)
Give bare numbers, in %.

{"molecule": "CCN(CC)c1ccc(/C=C/C(=O)c2ccc(Br)cc2)cc1", "system tested": "DNA dC->dU-editing enzyme APOBEC-3G (Homo sapiens) (UniProt Q9HC16)", "max response, %": 26.9}
{"molecule": "COc1ccc(C(=O)NC(=S)NCc2cccnc2)cc1Cl", "system tested": "DNA dC->dU-editing enzyme APOBEC-3G (Homo sapiens) (UniProt Q9HC16)", "max response, %": -0.724}
{"molecule": "COc1cccc(CNCCSc2nnnn2C)c1OCc1ccc(F)cc1", "system tested": "DNA dC->dU-editing enzyme APOBEC-3G (Homo sapiens) (UniProt Q9HC16)", "max response, %": 2.02}
{"molecule": "O=C(Nc1nnc(-c2ccc3c(c2)CCCC3)o1)c1c(F)cccc1F", "system tested": "DNA dC->dU-editing enzyme APOBEC-3G (Homo sapiens) (UniProt Q9HC16)", "max response, %": 11.9}
{"molecule": "CCOC(=O)/C(=C/C1=CC(=C/N(C)C)/C(=O)O1)C(C)=O", "system tested": "DNA dC->dU-editing enzyme APOBEC-3G (Homo sapiens) (UniProt Q9HC16)", "max response, %": 1.47}

Give max response for all molecules that follow.
1. CNC(=O)C(Sc1nc(C)nc2c1oc1ccccc12)C(C)=O (stereo unspecified)
2. COc1cc(/C=C2\SC(=Nc3cccnc3)NC2=O)cc(OC)c1OC
3. O=C(Nc1nc2ccccc2s1)c1ccc([N+](=O)[O-])o1
4. CN1CCC(OC(=O)c2cc3cc(Cl)cc(Cl)c3oc2=O)CC1
5. Cc1sc2ncn(CC(=O)NCc3ccccc3)c(=O)c2c1C

-16.6
-29.3
-24.2
17.4
-26.2

Looking for the measured max response of O=C(c1ccccn1)C1CCCN(Cc2cn[nH]c2-c2cc3ccccc3o2)C1 (stereo unspecified) , can you help?
0.488

====

Task for the reader: assign each of the following compounds its reported Potency.
- system tested: DNA dC->dU-editing enzyme APOBEC-3G (Homo sapiens)
- protocol summary: qHTS for inhibitors of Vif-A3G interactions: Cherry picks counterscreen;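 further: hits raise yellow fluorescence by blocking Vif-driven A3G-eYFP degradation; nearly all actives have a fitted effect of over 70% in size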; further: potency means the concentration at half of the fitted maximal effect
- assay setup: HeLa A3G-eYFP + Vif (tagged APOBEC3G with the HIV-1 protein that degrades it), eYFP fluorescence, 24 h
In all, about 2,100 compounds went through this assay and about 1,100 (52%) were called active. About 27% were inconclusive and are not listed. So high a share suggests a set chosen from earlier hits. Some of the results follow.

Solved entries:
{"compound": "N#C/C(=C/c1ccc(N2CCCCCC2)o1)c1ccc(Cl)cc1", "measured property": "Potency", "observed value": "2.91 µM (active)"}
{"compound": "COc1ccc(C(=O)/C=C2/c3ccccc3CC(C)(C)N2C)cc1", "measured property": "Potency", "observed value": "12.5 µM (active)"}

Give Potency for all compounds that follow.
1. Cc1cccc(NC(=O)/C=C/c2ccc([N+](=O)[O-])s2)c1
2. N#C/C(=C\c1ccc(N2CCOCC2)o1)c1ccccc1
3. O=C(Cn1nc2c(cc1=O)CCCC2)NCc1ccc(Cl)cc1

["14.6 µM (active)", "14 µM (active)", "13 µM (active)"]

Give Potency for all compounds that follow.
1. COc1cc(/C=C2\COC/C(=C\c3cc(OC)c(OC)c(OC)c3)C2=O)cc(OC)c1OC
2. COc1c(-c2ccc(O)c(O)c2)oc2cc(O)cc(O)c2c1=O
3. CCn1c(=O)c2cc(C(=O)NCCCOC)sc2c2ccccc21

["3.14 µM (active)", "7.9 µM (active)", "7.04 µM (active)"]

Give Potency for all compounds that follow.
1. COc1ccc(NC(=O)c2ccc3c(c2)c(C)c(C)n3Cc2ccc(F)cc2)cc1
2. N#C/C(=C/c1ccc(N2CCOCC2)o1)c1ccc(Cl)cc1
3. CCOc1cc(/C=C2\CN(C)C/C(=C\c3ccc(O)c(OCC)c3)C2=O)ccc1O
4. Cc1ccc(/C(C#N)=C\c2ccc(N3CCOCC3)o2)cc1
5. O=c1[nH]c2cc(Br)cnc2nc1/C=C(\O)c1ccc(F)cc1
6. Cc1ccc(-c2nc3sc(C#N)c(N)n3c(=O)c2C#N)cc1
7. O=C1c2ccccc2C(=O)c2c(/C=C/N3CCCCC3)ccnc21

5.17 µM (active)
2.31 µM (active)
5.59 µM (active)
17.7 µM (active)
18.4 µM (active)
25.9 µM (active)
23.1 µM (active)

Give Potency for all compounds that follow.
1. COc1cc(OC)cc(C(=O)Nc2ccc(N3CCN(C(=O)c4cccs4)CC3)cc2)c1
2. CN(C)c1ccc(/C=C2\Oc3ccc(C#Cc4cccc(N)c4)cc3C2=O)cc1
3. CC(=O)n1cc(/C=N/NC(=O)c2sc(C)nc2C)c2ccccc21
4. COc1ccccc1Nc1cc2cc(Br)ccc2c(=O)[nH]1
5. CCOC(=O)c1c(C)sc(-c2c(-c3ccccc3)[nH]c3[nH]c(=O)[nH]c(=O)c23)c1O
6. CC(=O)Nc1ccc(-c2ccnc3c2CC(C(=O)NCc2ccccc2)O3)cc1 (configuration not stated)
7. COc1cc(OC)c(OC)cc1/C=C1\CC(C)C/C(=C\c2cc(OC)c(OC)cc2OC)C1=O (configuration not stated)

1. 6.27 µM (active)
2. 17.7 µM (active)
3. 17.7 µM (active)
4. 15.8 µM (active)
5. 18.4 µM (active)
6. 0.444 µM (active)
7. 20.6 µM (active)
